Where do the numbers come from? From ChEMBL document CHEMBL1124277.

Biological target: Cysteinyl leukotriene receptor 1 (Cavia porcellus)
Assay: Dissociation constant for leukotriene antagonist (compound) on Cysteinyl leukotriene D4 receptor in guinea pig ileum was determined
Format: functional, tissue-based
reported property: pKB
Reply briefly: the number, and no unit.

# example entries with known answers
Name the recorded pKB for CCCc1c(OCCCCc2nnn[nH]2)ccc(C(C)=O)c1O .
6.93

Name the recorded pKB for CCCc1c(CCCCc2nnn[nH]2)ccc(C(C)=O)c1O .
6.25

Name the recorded pKB for CCCc1c(OCCCc2nnn[nH]2)ccc(C(C)=O)c1O .
5.47

Please turn your attention to the following entry.
Name the recorded pKB for CCCc1c(CCCCCc2nnn[nH]2)ccc(C(C)=O)c1O .
7.08

====

Below, each entry is listed alongside its reported pKB.
Target: Cysteinyl leukotriene receptor 1 (Cavia porcellus) (UniProt Q2NNR5)
Sequence (Q2NNR5 whole entry): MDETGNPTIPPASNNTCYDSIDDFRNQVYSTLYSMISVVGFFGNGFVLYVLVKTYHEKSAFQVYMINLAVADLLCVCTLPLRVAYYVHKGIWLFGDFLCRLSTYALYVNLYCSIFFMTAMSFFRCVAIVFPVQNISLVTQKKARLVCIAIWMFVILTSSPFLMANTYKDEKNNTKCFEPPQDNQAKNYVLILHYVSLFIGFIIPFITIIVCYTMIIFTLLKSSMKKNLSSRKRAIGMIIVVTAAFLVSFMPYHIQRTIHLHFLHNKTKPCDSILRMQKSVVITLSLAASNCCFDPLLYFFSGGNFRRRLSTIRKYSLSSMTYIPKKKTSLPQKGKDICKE
Assay: Dissociation constant for leukotriene antagonist (compound) on LTE4 receptor in guinea pig ileum was determined
Assay type: functional, tissue-based
Reply briefly: the number, and no unit.

# example entries with known answers
Name the recorded pKB for CCCc1c(OCCCc2nnn[nH]2)ccc(C(C)=O)c1O .
5.64

Name the recorded pKB for CCCc1c(CCCCc2nnn[nH]2)ccc(C(C)=O)c1O .
6.67

Name the recorded pKB for CCCc1c(CCCCCc2nnn[nH]2)ccc(C(C)=O)c1O .
7.5

Please turn your attention to the following entry.
Name the recorded pKB for CCCc1c(OCCCCc2nnn[nH]2)ccc(C(C)=O)c1O .
7.21
